Assign melting point to each entry below.

Which melting point reading was recorded for the compound CCC(C)(C)Nc1c(-c2cccnc2)c(=O)c1=O.Cl ?
152 to 155.9 °C (dec.)

Item CC(Nc1c(/C=C/c2ccc(C#N)cc2)c(=O)c1=O)C(C)(C)C (stereo not shown) has what recorded melting point?
240.2 to 241 °C

Field request: melting point | item: COc1ccc(-c2c(NC(C)C(C)(C)C)c(=O)c2=O)cc1 (stereo not shown)
179 to 181 °C

Looking for the measured melting point of CCC(C)(C)Nc1c(-c2ccc(C(F)(F)F)cc2)c(=O)c1=O , can you help?
115.4 to 119 °C (dec.)

Report melting point for COc1ccc(-c2c(NCCc3ccc(C(C)(C)C)cc3)c(=O)c2=O)cc1 please.
258.1 to 260.2 °C

Return reported melting point; argument: COc1ccc(-c2c(N(C)C(C)C)c(=O)c2=O)cc1
109 to 115 °C

Need melting point, item COc1ccc(-c2c(N[C@H](C)c3ccccc3)c(=O)c2=O)cc1
158.7 to 160.1 °C

----------
Please go through the items and note down their inhibition at 30 µM.
- Test system: Bladder Tissue
- EXPERIMENT: Smooth muscle (bladder) relaxing activity: inhibition of KCl-enhanced contractile activity of isolated rat bladder strips
- Assay type: cell-based, Sprague-Dawley rats
- COND: rat bladder strips, additional 15 mM KCl; percent inhibition at 30 μM (footnote *); read-out: Bladder Tissue, I = percent inhibition of contractile activity
Number in %, nothing else.

Which value of inhibition at 30 µM has been reported for COc1ccc(-c2c(NCC(C)c3ccccc3)c(=O)c2=O)cc1 (stereo not drawn) [Example 7] in the records?
7.4

Fill in the blank: the reported inhibition at 30 µM of COc1ccc(-c2c(NCCc3cccc(C(F)(F)F)c3)c(=O)c2=O)cc1 [Example 5] is ____.
9.75

Could you share which inhibition at 30 µM value was measured for CC(Nc1c(-c2ccc(C#N)cc2)c(=O)c1=O)C(C)(C)C (stereo not drawn) [Example 9] ?
27.2

Give the measured inhibition at 30 µM of CCC(C)(C)Nc1c(-c2ccc(C(F)(F)F)cc2)c(=O)c1=O [Example 11] .
34.2

Form field: reported inhibition at 30 µM of CCC(C)(C)Nc1c(-c2cccnc2)c(=O)c1=O.Cl [Example 12, Hydrochloride]
26

Using the record for CC(Nc1c(/C=C/c2ccc(Br)cc2)c(=O)c1=O)C(C)(C)C (stereo not drawn) [Example 26] , report its inhibition at 30 µM.
15.6

----------
MEASURE_NAME: melting point

Could you tell me which melting point is on file for CCC(C)(C)Nc1c(-c2ccc(OC)cc2)c(=O)c1=O [Example 2] ?
133 to 135 °C

Entry under review: COc1ccc(-c2c(NC(C)(C)Cc3ccccc3)c(=O)c2=O)cc1 [Example 1] . Reported melting point?
150 to 151 °C

Entry COc1ccc(-c2c(NCC(C)c3ccccc3)c(=O)c2=O)cc1 (centres unmarked) [Example 7] has what melting point?
215.4 to 216.2 °C

Param item = CC(Nc1c(-c2ccc(Br)cc2)c(=O)c1=O)C(C)(C)C (centres unmarked) [Example 22] ; retrieve measured melting point.
210.6 to 211.3 °C

Fill in the blank: the reported melting point of COc1ccc(-c2c(NCCc3cccc(C(F)(F)F)c3)c(=O)c2=O)cc1 [Example 5] is ____.
220.2 to 222.3 °C

Hey, just so you know, these numbers are from patent US6465523B1.
